src = patent US20200283478A1

biological target: T1, PCSK9Δhelix (human, UniProt Q8NBP7 31-152; Q8NBP7 168-692); assay: TR-FRET competition; competitor Ab20 binding to His-PCSK9Δhelix
T1 construct: Made by TEV cleavage of human PCSK9 M1-Q692 with an engineered TEV site; The new N-terminus of the catalytic domain is S-A168; also called His-PCSK9Δhelix; PCSK9 lacking the P' helix
T1 sequence (Q8NBP7 31-152, stated change not applied, chain 1 of 2): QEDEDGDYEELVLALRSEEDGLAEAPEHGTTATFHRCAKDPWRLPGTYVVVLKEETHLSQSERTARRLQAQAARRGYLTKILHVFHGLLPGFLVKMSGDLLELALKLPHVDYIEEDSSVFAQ
T1 sequence (Q8NBP7 other isoform, or with tags, fused parts or gaps mutant, chain 2 of 2): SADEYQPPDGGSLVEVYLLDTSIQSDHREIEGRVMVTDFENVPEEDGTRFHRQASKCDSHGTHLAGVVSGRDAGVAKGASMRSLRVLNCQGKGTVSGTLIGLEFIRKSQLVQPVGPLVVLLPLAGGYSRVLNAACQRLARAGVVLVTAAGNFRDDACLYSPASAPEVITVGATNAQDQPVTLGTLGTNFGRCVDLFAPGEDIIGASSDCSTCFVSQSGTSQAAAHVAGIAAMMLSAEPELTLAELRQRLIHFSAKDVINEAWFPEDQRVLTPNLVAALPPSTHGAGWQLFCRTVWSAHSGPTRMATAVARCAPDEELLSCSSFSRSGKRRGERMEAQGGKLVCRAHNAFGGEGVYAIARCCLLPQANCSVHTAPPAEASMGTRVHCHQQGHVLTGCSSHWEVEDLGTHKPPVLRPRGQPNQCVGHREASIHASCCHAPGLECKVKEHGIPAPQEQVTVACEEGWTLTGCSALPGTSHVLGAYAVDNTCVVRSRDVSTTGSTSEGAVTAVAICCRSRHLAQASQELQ
Bridge positions count the residues as written; N and C are the ends.
assay endpoint: IC50

| binder | IC50 |
| --- | --- |
| Ac-TVFTSWEEYLDWVGSGGCWNLKRIGSQGC-NH2 (disulfide 18-29 (inferred), Two Cys, disulfide-cyclized) [Compound 14] | 1 nM |
| Ac-TVFTSWEEYLDWVGGSGCWNLKRIGSQGC-NH2 (disulfide 18-29 (inferred), Two Cys, disulfide-cyclized) [Compound 13] | 1 nM |
| Ac-TVFTSWEEYLDWVGSGCRLPWNLQRIGLPC-NH2 (disulfide 17-30 (inferred), Two Cys, disulfide-cyclized; also called Pep2-8p4; Pep2-8_K9gvpep4) [Compound 19] | 2 nM |

IC50 lookup needed for Ac-TVFTSWEEYLDWVGSGGCFLPWNLQRIGLLC-NH2 (disulfide 18-31 (inferred), Two Cys, disulfide-cyclized) [Compound 38] , thanks.
3 nM

For Ac-TVFTSWEEYLDWVGSGGCRLPWNLQRIGLPC-NH2 (disulfide 18-31 (inferred), Two Cys, disulfide-cyclized) [Compound 25] , what is its reported IC50?
83 nM
